src = ChEMBL document CHEMBL1287780

Tested on: KB
assay-remarks: Antiproliferative activity against human KB cells after 72 hrs by methylene blue staining
Format: functional, cell-based
readout-name: pIC50
// pIC50 is dimensionless: -log10 of concentration (M)

Inquiry: Consider the compound shown here: COc1cc(OC)cc(C(=O)n2nnc3ccccc32)c1 What is its recorded pIC50?
Reply text: 6.36

Inquiry: Consider the compound shown here: O=C(c1ccc(O)cc1)n1nnc2ccccc21 What is its recorded pIC50?
Reply text: 6.24

Inquiry: Consider the compound shown here: COc1ccc(C(=O)On2nnc3ccccc32)cc1 What is its recorded pIC50?
Reply text: 7.37

Inquiry: Consider the compound shown here: COc1cc(OC)cc(C(=O)On2nnc3ccccc32)c1 What is its recorded pIC50?
Reply text: 7.43

Inquiry: Consider the compound shown here: COc1ccc(C(=O)On2nnc3ccc(OC)cc32)cc1 What is its recorded pIC50?
Reply text: 7.01

Inquiry: Consider the compound shown here: O=C(On1nnc2ccccc21)c1cc(O)cc(O)c1 What is its recorded pIC50?
Reply text: 7.17

Inquiry: Consider the compound shown here: COc1cc(OC)cc(C(=O)On2nnc3ccc(OC)cc32)c1 What is its recorded pIC50?
Reply text: 7.46
